# assayed-system: CDK9 (Homo sapiens, UniProt P50750)
# Construct: endogenous in cells; host or cells: MDA-MB-231
# Sequence (P50750 whole entry): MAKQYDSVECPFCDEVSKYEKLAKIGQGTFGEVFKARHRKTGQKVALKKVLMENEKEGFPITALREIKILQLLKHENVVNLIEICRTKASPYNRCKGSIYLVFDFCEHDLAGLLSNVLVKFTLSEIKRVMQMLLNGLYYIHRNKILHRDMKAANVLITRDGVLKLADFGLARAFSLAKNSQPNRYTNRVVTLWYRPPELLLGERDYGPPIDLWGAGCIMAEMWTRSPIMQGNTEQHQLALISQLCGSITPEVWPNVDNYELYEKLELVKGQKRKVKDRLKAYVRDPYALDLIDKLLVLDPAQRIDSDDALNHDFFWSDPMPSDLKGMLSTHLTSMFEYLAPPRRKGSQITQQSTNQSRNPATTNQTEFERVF
# procedure-text: CDK protein degradation activity (Western blotting), CDK9
# Assay type: cell-based
# applied-conditions: MDA-MB-231 cells, 10 μM, 16 hours, Western blot
value-type: Enzyme degradation CDK9 (% remaining) @ 10 μM (%)

Worked examples follow.
Given the entry CC(=O)NC1CC(n2cnc3c(NCC4CCN(CC5CCN(C(=O)COc6cccc7c6C(=O)N([C@H]6CCC(=O)NC6=O)C7=O)CC5)CC4)ncnc32)C1 (some centres unmarked) , report its measured Enzyme degradation CDK9 (% remaining) @ 10 μM. 0

What value of Enzyme degradation CDK9 (% remaining) @ 10 μM has been reported for the following molecule? Cc1cccc(C(=O)NC2CC(n3cnc4c(NCCCN5CCN(CC6CCN(C(=O)COc7ccc8c(c7)C(=O)N([C@@H]7CCC(=O)NC7=O)C8=O)CC6)CC5)ncnc43)C2)n1 (some centres unmarked) 0

I = O=C1CC[C@H](N2C(=O)c3cccc(OCC(=O)N4CCC(OCCN5CCN(c6ccc(Nc7ncnc8c7ncn8C7CC(NC(=O)Cc8ccccc8)C7)cc6)CC5)CC4)c3C2=O)C(=O)N1 (some centres unmarked)
II = O=C1CC[C@H](N2C(=O)c3ccc(N4CCC(CN5CCC(CCNc6ncnc7c6ncn7C6CC(NC(=O)Cc7ccccc7)C6)CC5)CC4)cc3C2=O)C(=O)N1 (some centres unmarked)
III = O=C1CC[C@H](N2C(=O)c3cc(F)c(N4CCC(CCCN5CCN(c6ccc(Nc7ncnc8c7ncn8[C@H]7C[C@@H](NC(=O)Cc8ccccc8)C7)cc6)CC5)CC4)cc3C2=O)C(=O)N1
# rank by Enzyme degradation CDK9 (% remaining) @ 10 μM, ascending (min first) Answer by naming the labels in the order asked. I, II, III

----------
Each entry below lists one item and its recorded Enzyme degradation CDK9 (% remaining) @ 10 μM value.
# assayed-system: CDK9 (Homo sapiens, UniProt P50750)
# Construct: endogenous in cells; host or cells: MDA-MB-231
# procedure-text: CDK protein degradation activity (Western blotting), CDK9
# Format: cell-based
# applied-conditions: MDA-MB-231 cells, 10 μM, 16 hours, Western blot

So what's the measured Enzyme degradation CDK9 (% remaining) @ 10 μM for this one? O=C1CCC(N2C(=O)c3cc(F)c(N4CCC(C(=O)N5CCC(CCN6CCN(c7ccc(Nc8ncnc9c8ncn9[C@H]8C[C@@H](NC(=O)c9c(Cl)cccc9Cl)C8)cc7)CC6)CC5)CC4)cc3C2=O)C(=O)N1 (stereo partly drawn) [Compound 463] 0/0/0%

Using the record for O=C1CCC(N2C(=O)c3cccc(CCCCN4CCC(CN5CCN(c6ccc(Nc7ncnc8c7ncn8[C@H]7C[C@@H](NC(=O)c8cccc(F)n8)C7)cc6)CC5)CC4)c3C2=O)C(=O)N1 (stereo partly drawn) [Compound 432] , report its Enzyme degradation CDK9 (% remaining) @ 10 μM. 0/0/0%

Pending compound:
Could you tell me which Enzyme degradation CDK9 (% remaining) @ 10 μM is on file for Cc1cccc(C(=O)NC2CC(n3cnc4c(NCc5ccc(OCC6CCN(C(=O)COc7cccc8c7C(=O)N([C@H]7CCC(=O)NC7=O)C8=O)CC6)cc5)ncnc43)C2)n1 (stereo partly drawn) [Compound 107] ? 0%

----------
# assayed-system: CDK9 (Homo sapiens, UniProt P50750)
# Construct: endogenous in cells; host or cells: MDA-MB-231
# procedure-text: CDK protein degradation activity (Western blotting), CDK9
# Assay type: cell-based
# applied-conditions: MDA-MB-231 cells, 0.1 μM, 16 hours, Western blot
value-type: Enzyme degradation CDK9 (% remaining) @ 0.1 μM (%)

1 = O=C1CC[C@H](N2C(=O)C=C(N3CCC(C(=O)N4CCC5(CC4)CC(N4CCN(c6ccc(Nc7ncnc8c7ncn8C7CC(NC(=O)Cc8ccccc8)C7)cc6)CC4)C5)CC3)C2=O)C(=O)N1 (stereo partly drawn)
2 = Cc1cccc(C(=O)NC2CC(n3cnc4c(NC5CCN(CCOC6CCN(C(=O)CNc7cccc8c7C(=O)N([C@H]7CCC(=O)NC7=O)C8=O)CC6)CC5)ncnc43)C2)n1 (stereo partly drawn)
# returns the entry with the larger Enzyme degradation CDK9 (% remaining) @ 0.1 μM; inputs 1 and 2 Bench note: the answer is the label of the chosen record. 2

----------
# assayed-system: CDK2 (Homo sapiens)
# Construct: endogenous in cells; host or cells: MDA-MB-231
# procedure-text: CDK protein degradation activity (Western blotting), CDK2
# Assay type: cell-based
# applied-conditions: MDA-MB-231 cells, 1 μM, 16 hours, Western blot
value-type: Enzyme degradation CDK2 (% remaining) @ 1 μM (%)

Some entries whose results are on file:
Recorded Enzyme degradation CDK2 (% remaining) @ 1 μM for O=C1CC[C@H](N2C(=O)c3cccc(OCC(=O)N4CCC(OCCN5CCN(c6ccc(Nc7ncnc8c7ncn8C7CC(NC(=O)Cc8ccccc8)C7)cc6)CC5)CC4)c3C2=O)C(=O)N1 (stereo partly shown) , please? 40

Would you kindly share the measured Enzyme degradation CDK2 (% remaining) @ 1 μM for Cc1cccc(C(=O)N[C@H]2C[C@@H](n3cnc4c(NC5CCN(CCCN6CCN(c7ccc8c(c7)C(=O)N([C@H]7CCC(=O)NC7=O)C8=O)CC6)CC5)ncnc43)C2)n1 (racemic) ? 60

Item under review: Cc1cccc(C(=O)NC2CC(n3cnc4c(NC5CCN(C(=O)CC6CCN(c7ccc8c(c7)C(=O)N([C@H]7CCC(=O)NC7=O)C8=O)CC6)CC5)ncnc43)C2)n1 (stereo partly shown) . Reported Enzyme degradation CDK2 (% remaining) @ 1 μM? 80

Which value of Enzyme degradation CDK2 (% remaining) @ 1 μM has been reported for `Cc1cccc(C(=O)N[C@H]2C[C@@H](n3cnc4c(NCc5ccc(OCCCN6CCN(C(=O)CNc7cccc8c7C(=O)N([C@H]7CCC(=O)NC7=O)C8=O)CC6)cc5)ncnc43)C2)n1` in the records? 40

Please give the measured Enzyme degradation CDK2 (% remaining) @ 1 μM for this compound: O=C1CCC(N2C(=O)c3ccc(N4CCC(CN5CCC(CCNc6ncnc7c6ncn7[C@H]6C[C@@H](NC(=O)c7c(Cl)cccc7Cl)C6)CC5)CC4)cc3C2=O)C(=O)N1 (stereo partly shown) 30

Which Enzyme degradation CDK2 (% remaining) @ 1 μM value is on record for O=C1CC[C@H](N2C(=O)c3ccc(N4CC(C(=O)N5CCN(CC6CCN(c7ccc(Nc8ncnc9c8ncn9C8CC(NC(=O)Cc9ccccc9)C8)cc7)CC6)CC5)C4)cc3C2=O)C(=O)N1 (stereo partly shown) ? 30

I = O=C1CC[C@H](n2nnc3ccc(N4CCC(CN5CCC(CCNc6ncnc7c6ncn7C6CC(NC(=O)c7c(Cl)cccc7Cl)C6)CC5)CC4)cc3c2=O)C(=O)N1 (stereo partly shown)
II = O=C1CC[C@H](N2C(=O)C=C(Nc3cccc(CC(=O)N4CCC(CC(=O)N5CCN(c6ccc(Nc7ncnc8c7ncn8[C@H]7C[C@@H](NC(=O)Cc8ccccc8)C7)cc6)CC5)CC4)c3)C2=O)C(=O)N1
Recorded Enzyme degradation CDK2 (% remaining) @ 1 μM values differ for I and II ; which one is higher? Please identify the chosen entry by its label. II

a = O=C1CCC(N2C(=O)c3ccc(N4CCC(C(=O)N5CCC(CN6CCC(CCNc7ncnc8c7ncn8[C@H]7C[C@@H](NC(=O)c8c(Cl)cccc8Cl)C7)CC6)CC5)CC4)cc3C2=O)C(=O)N1 (stereo partly shown)
b = O=C1CCC(c2ccc(OCC(=O)N3CC(CN4CCC5(CC4)CC(N4CCN(c6ccc(Nc7ncnc8c7ncn8[C@H]7C[C@@H](NC(=O)Cc8ccccc8)C7)cc6)CC4)C5)C3)cc2)C(=O)N1 (stereo partly shown)
Endpoint returns the identifier whose Enzyme degradation CDK2 (% remaining) @ 1 μM is numerically larger, either a or b . Give the chosen item's label as your response. b

----------
# assayed-system: CDK9 (Homo sapiens)
# Construct: endogenous in cells; host or cells: MDA-MB-231
# procedure-text: CDK protein degradation activity (Western blotting), CDK9
# Format: cell-based
# applied-conditions: MDA-MB-231 cells, 1 μM, 16 hours, Western blot
value-type: Enzyme degradation CDK9 (% remaining) @ 1 μM (%)

# example entries with known answers
Quick one: Enzyme degradation CDK9 (% remaining) @ 1 μM of O=C(COc1ccc2c(c1)C(=O)N(C1CCC(=O)NC1=O)C2=O)NC[C@H]1CC[C@H](CN2CCN(c3ccc(Nc4ncnc5c4ncn5[C@H]4C[C@@H](NC(=O)Cc5ccccc5)C4)cc3)CC2)CC1 (some centres unmarked) ? 60

What does the data say about its Enzyme degradation CDK9 (% remaining) @ 1 μM? Entry: `COc1ccc(C(=O)N2CCC(CCCN3CCN(c4ccc(Nc5ncnc6c5ncn6[C@H]5C[C@@H](NC(=O)Cc6ccccc6)C5)cc4)CC3)CC2)cc1N1CCC(=O)NC1=O` 50

a = Cc1cccc(C(=O)NC2CC(n3cnc4c(NCc5ccc(N6CCN(CC7CCN(c8cccc9c8C(=O)N([C@H]8CCC(=O)NC8=O)C9=O)CC7)CC6)cc5)ncnc43)C2)n1 (some centres unmarked)
b = Cc1cccc(C(=O)NC2CC(n3cnc4c(NCCCN5CCN(CC6CCN(C(=O)COc7cccc8c7C(=O)N([C@@H]7CCC(=O)NC7=O)C8=O)CC6)CC5)ncnc43)C2)n1 (some centres unmarked)
Would you let me know which has the greater Enzyme degradation CDK9 (% remaining) @ 1 μM value, a or b ? Pick one; state its label. a
